# PROCEDURE_SUMMARY: qHTS assay to identify small molecule antagonists of the sonic hedgehog signaling (Shh) pathway - cell viability counter screen (AID 1259367); further: nearly all actives have a fitted effect of over 55% in size
# TEST_SETTINGS: NIH/3T3 Gli1-Luc viability, CellTiter-Fluor, 24 h; series mostly up to 92.4 µM
Records with an inconclusive call do not appear. Active and inactive are the calls of the source. The call rests on the fitted dose curve; in most records, active means well fitted cell-killing curve with a large enough effect in the repeat runs; inconclusive means weak or mixed curves, or effect the other way; inactive means no such curve, though single readings can be large or run the other way.
Outcome codes: y = active, n = inactive

>  <COMPOUND>
CNC(=O)CN(CCN(CCN(CC(=O)[O-])CC(=O)NC)CC(=O)[O-])CC(=O)[O-].O.[Gd+3]

>  <CAT>
n

$$$$
>  <COMPOUND>
C[C@H]1C[C@H]2[C@@H]3CCC4=CC(=O)C=C[C@]4(C)[C@@]3(Cl)[C@@H](O)C[C@]2(C)[C@@]1(O)C(=O)CO

>  <CAT>
n

$$$$
>  <COMPOUND>
c1ccc(-c2ccccn2)nc1

>  <CAT>
n

$$$$
>  <COMPOUND>
Nc1c(CC(=O)O)cccc1C(=O)c1ccc(Br)cc1

>  <CAT>
n

$$$$
>  <COMPOUND>
C=CC(=O)OCCOc1ccccc1

>  <CAT>
n

$$$$
>  <COMPOUND>
COC(=O)c1ccc(I)cc1S(=O)(=O)NC(=O)Nc1nc(C)nc(OC)n1

>  <CAT>
n

$$$$
>  <COMPOUND>
NCCCN1CCOCC1

>  <CAT>
n

$$$$
>  <COMPOUND>
C=CC(=O)OCCOCCOC(=O)C=C

>  <CAT>
y

$$$$
>  <COMPOUND>
Clc1ccc(Cn2c(CN3CCCC3)nc3ccccc32)cc1

>  <CAT>
n

$$$$
>  <COMPOUND>
Cc1ccc(C(=O)Oc2ccc(C(O)CNC(C)(C)C)cc2OC(=O)c2ccc(C)cc2)cc1 (stereo unspecified)

>  <CAT>
n

$$$$
>  <COMPOUND>
CC(C)CC(=O)C1C(=O)c2ccccc2C1=O

>  <CAT>
n

$$$$

----------
# MEASURED_TARGET: Vitamin D3 receptor (Homo sapiens) (UniProt P11473)
# Sequence (P11473 whole entry, looked up): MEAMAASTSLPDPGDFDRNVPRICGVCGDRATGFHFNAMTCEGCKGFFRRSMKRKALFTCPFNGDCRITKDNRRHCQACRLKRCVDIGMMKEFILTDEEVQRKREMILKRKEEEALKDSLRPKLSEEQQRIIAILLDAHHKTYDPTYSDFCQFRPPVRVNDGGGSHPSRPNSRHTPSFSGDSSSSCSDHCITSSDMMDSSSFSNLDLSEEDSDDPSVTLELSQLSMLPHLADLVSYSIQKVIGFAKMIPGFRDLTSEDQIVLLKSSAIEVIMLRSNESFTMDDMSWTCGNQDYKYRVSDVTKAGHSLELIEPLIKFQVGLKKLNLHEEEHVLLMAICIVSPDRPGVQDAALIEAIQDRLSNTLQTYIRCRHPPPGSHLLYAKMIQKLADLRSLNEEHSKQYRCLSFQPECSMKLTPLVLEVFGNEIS
# PROCEDURE_SUMMARY: qHTS assay to identify small molecule agonists of the vitamin D receptor (VDR) signaling pathway (AID 743222); further: on the % scale 0 is the no-effect control and ±100 the full control effect
# TEST_SETTINGS: HEK293T VDR-UAS-bla, beta-lactamase FRET ratio, 16 h; series mostly up to 63.5 µM
Results filed as inconclusive are left out. Calls of active or inactive are those of the source. Calls come from the whole dose curve.

>  <MOLECULE>
C/C(=C(\CCOP(=O)(O)O)SC(=O)c1ccccc1)N(C=O)Cc1cnc(C)nc1N

>  <activation>
-0.529% [at 6.01 µM] (inactive)

$$$$
>  <MOLECULE>
CCOC(=O)C1=C[C@]2(CC)CCCN3CCc4c(n1c1ccccc41)[C@@H]32

>  <activation>
inactive

$$$$
>  <MOLECULE>
O=C(NCC1CN(c2ccc(N3CCOCC3=O)cc2)C(=O)O1)c1ccc(Cl)s1 (stereo not given)

>  <activation>
inactive

$$$$
>  <MOLECULE>
CCCCCCCCCCCCCCCCCCOS(=O)(=O)O

>  <activation>
inactive

$$$$
>  <MOLECULE>
O=C(O)CNCC(=O)O

>  <activation>
4.1% [at 6.01 µM] (inactive)

$$$$
>  <MOLECULE>
CC[N+]1(CC)CCC(=C(c2ccccc2)c2ccccc2)C1C (stereo not given)

>  <activation>
inactive

$$$$
>  <MOLECULE>
O=C(O)c1ccco1

>  <activation>
inactive

$$$$
>  <MOLECULE>
O=C(OCCc1ccccc1)c1ccccc1

>  <activation>
inactive

$$$$
>  <MOLECULE>
C1CCCNCCC1

>  <activation>
inactive

$$$$
>  <MOLECULE>
CCCCCCCCCCO[C@@H]1O[C@H](CO)[C@@H](O)[C@H](O)[C@H]1O

>  <activation>
inactive

$$$$
